- subject.of.test: T1, human CD25 (IL-2Rα) (human, UniProt P01589 22-213)
- T1 chain: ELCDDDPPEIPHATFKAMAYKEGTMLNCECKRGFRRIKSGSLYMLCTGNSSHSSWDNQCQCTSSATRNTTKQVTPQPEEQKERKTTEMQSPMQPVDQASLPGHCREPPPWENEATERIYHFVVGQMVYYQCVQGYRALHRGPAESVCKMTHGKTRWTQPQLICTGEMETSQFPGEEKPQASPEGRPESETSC
- experiment.notes: Biacore; pH 7.4
Entries and their Kd
Give a bare numeral; the unit nM is implied.

Some binders with recorded Kd:
14209 T41Q F42Y C125S (protein) APTSSSTKKTQLQLEHLLLDLQMILNGINNYKNPKLTRMLQYKFYMPKKATELKHLQCLEEELKPLEEVLNLAQSKNFHLRPRDLISNINVIVLELKGSETTFMCEYADETATIVEFLNRWITFSQSIISTLT; 5950
14215 R38N T41K C125S (protein) APTSSSTKKTQLQLEHLLLDLQMILNGINNYKNPKLTNMLKFKFYMPKKATELKHLQCLEEELKPLEEVLNLAQSKNFHLRPRDLISNINVIVLELKGSETTFMCEYADETATIVEFLNRWITFSQSIISTLT; 75.4

Item: 14214 R38N T41R C125S (protein) APTSSSTKKTQLQLEHLLLDLQMILNGINNYKNPKLTNMLRFKFYMPKKATELKHLQCLEEELKPLEEVLNLAQSKNFHLRPRDLISNINVIVLELKGSETTFMCEYADETATIVEFLNRWITFSQSIISTLT | Kd: 149

Per the record, 14216 R38V T41R C125S (protein) APTSSSTKKTQLQLEHLLLDLQMILNGINNYKNPKLTVMLRFKFYMPKKATELKHLQCLEEELKPLEEVLNLAQSKNFHLRPRDLISNINVIVLELKGSETTFMCEYADETATIVEFLNRWITFSQSIISTLT has Kd of 214

Cited source: patent US20250092108A1
